Where these numbers come from: patent US20140163026A1

Quick note: these are IC50 numbers for system: PAK4 (Homo sapiens)
Sequence (O96013 whole entry): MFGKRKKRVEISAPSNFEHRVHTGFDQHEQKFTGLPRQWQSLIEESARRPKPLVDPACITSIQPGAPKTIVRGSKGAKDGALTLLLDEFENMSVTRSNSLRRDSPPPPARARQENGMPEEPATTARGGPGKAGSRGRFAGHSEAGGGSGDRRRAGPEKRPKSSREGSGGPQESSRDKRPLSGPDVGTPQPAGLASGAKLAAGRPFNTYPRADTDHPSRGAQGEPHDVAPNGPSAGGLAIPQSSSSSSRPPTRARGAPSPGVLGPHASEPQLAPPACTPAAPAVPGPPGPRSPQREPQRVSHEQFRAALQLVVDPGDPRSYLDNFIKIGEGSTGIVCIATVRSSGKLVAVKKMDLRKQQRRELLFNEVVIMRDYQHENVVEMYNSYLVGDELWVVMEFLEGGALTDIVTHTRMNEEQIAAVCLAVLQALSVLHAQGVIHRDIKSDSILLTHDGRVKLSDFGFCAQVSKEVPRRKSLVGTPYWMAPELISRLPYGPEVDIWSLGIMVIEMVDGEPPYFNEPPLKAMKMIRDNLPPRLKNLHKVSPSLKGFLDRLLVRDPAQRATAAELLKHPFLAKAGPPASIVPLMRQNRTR

>  <COMPOUND>
CCn1c(=O)c(-c2ccc(-c3ncccn3)cc2Cl)cc2cnc(Nc3ccc(N4CCN(C)CC4)cc3)nc21

>  <ASSAYED TARGET>
PAK4 (Homo sapiens)

>  <IC50>
0.5 to 5 µM

$$$$
>  <COMPOUND>
CCn1c(=O)c(-c2ccc(-c3ccnc(C(=O)NC)c3)cc2Cl)cc2cnc(Nc3ccc(CCN(C)C)cc3)nc21

>  <ASSAYED TARGET>
PAK4 (Homo sapiens)

>  <IC50>
≥ 5 µM

$$$$
>  <COMPOUND>
CCN1CCC(c2ccc(Nc3ncc4cc(-c5ccc(-c6noc(C)n6)cc5Cl)c(=O)n(C)c4n3)cc2)CC1

>  <ASSAYED TARGET>
PAK4 (Homo sapiens)

>  <IC50>
≥ 5 µM

$$$$
>  <COMPOUND>
CCn1c(=O)c(-c2ccc(-c3nnn[nH]3)cc2Cl)cc2cnc(Nc3ccc(N4CCN(C)CC4)cc3)nc21

>  <ASSAYED TARGET>
PAK4 (Homo sapiens)

>  <IC50>
≥ 5 µM

$$$$
>  <COMPOUND>
CCn1c(=O)c(-c2ccc(-c3cccnc3)cc2Cl)cc2cnc(Nc3ccc(C4CCN(C)CC4)cc3)nc21

>  <ASSAYED TARGET>
PAK4 (Homo sapiens)

>  <IC50>
0.5 to 5 µM

$$$$
>  <COMPOUND>
CCn1c(=O)c(-c2ccc(-c3cccs3)cc2)cc2cnc(Nc3ccc(N4CCN(C)CC4)cc3)nc21

>  <ASSAYED TARGET>
PAK4 (Homo sapiens)

>  <IC50>
≥ 5 µM

$$$$
>  <COMPOUND>
CCn1c(=O)c(-c2ccc(-c3cscn3)cc2Cl)cc2cnc(Nc3ccc(N4CCN(C)CC4)cc3)nc21

>  <ASSAYED TARGET>
PAK4 (Homo sapiens)

>  <IC50>
≥ 5 µM

$$$$
>  <COMPOUND>
CCn1c(=O)c(-c2ccc(-c3ccsc3)cc2)cc2cnc(Nc3ccc(N4CCN(C)CC4)cc3)nc21

>  <ASSAYED TARGET>
PAK4 (Homo sapiens)

>  <IC50>
≥ 5 µM

$$$$
>  <COMPOUND>
Cc1nc(-c2ccc(Cl)c(-c3cc4cnc(Nc5ccc(C6CCN(C)CC6)cc5)nc4n(C)c3=O)c2)no1

>  <ASSAYED TARGET>
PAK4 (Homo sapiens)

>  <IC50>
≥ 5 µM

$$$$
>  <COMPOUND>
Cc1ncc(-c2cc(Cl)c(-c3cc4cnc(Nc5ccc(C6CCN(C)CC6)cc5)nc4n(C)c3=O)cc2F)s1

>  <ASSAYED TARGET>
PAK4 (Homo sapiens)

>  <IC50>
≥ 5 µM

$$$$
>  <COMPOUND>
CCN1CCC(c2ccc(Nc3ncc4cc(-c5ccc(-c6ccc(F)nc6C)cc5Cl)c(=O)n(CC)c4n3)cc2)CC1

>  <ASSAYED TARGET>
PAK4 (Homo sapiens)

>  <IC50>
≥ 5 µM

$$$$
>  <COMPOUND>
CCn1c(=O)c(-c2ccc(-c3cnc(C)s3)cc2Cl)cc2cnc(Nc3ccc(N4CCN(C)CC4)cc3)nc21

>  <ASSAYED TARGET>
PAK4 (Homo sapiens)

>  <IC50>
≥ 5 µM

$$$$
>  <COMPOUND>
CCn1c(=O)c(-c2ccc(-c3cccnc3F)cc2Cl)cc2cnc(Nc3ccc(C4=CCN(C)CC4)cc3)nc21

>  <ASSAYED TARGET>
PAK4 (Homo sapiens)

>  <IC50>
0.5 to 5 µM

$$$$
>  <COMPOUND>
CCn1c(=O)c(-c2ccc(-c3cccnc3)cc2Cl)cc2cnc(Nc3ccc(N4CCN(C)CC4)c(F)c3)nc21

>  <ASSAYED TARGET>
PAK4 (Homo sapiens)

>  <IC50>
0.5 to 5 µM

$$$$
>  <COMPOUND>
CCN1CCN(c2ccc(Nc3ncc4cc(-c5ccc(-c6cncnc6)cc5Cl)c(=O)n(CC)c4n3)cc2F)CC1

>  <ASSAYED TARGET>
PAK4 (Homo sapiens)

>  <IC50>
0.5 to 5 µM

$$$$
>  <COMPOUND>
CCn1c(=O)c(-c2ccc(-c3ccnc(C(=O)NC)c3)cc2Cl)cc2cnc(Nc3ccc(C4CCN5CCCC5C4)cc3)nc21 (stereo not shown)

>  <ASSAYED TARGET>
PAK4 (Homo sapiens)

>  <IC50>
≥ 5 µM

$$$$
